system: Ax 26 Corynebacterium sp.; test: MIC microtiter plate test, axilla strain Ax 26; assay type: cell-based; settings: Table 1; growth inhibited by at least 80%, 24 h at 36° C.
Measured Minimal inhibitory concentration (MIC) Ax 26 of individual entries
The answer is to be given in % weight/volume; state only the numeric part.

Compound | Result Value
CC1=CCC(/C=C\C(C)C(C)O)C1(C)C (centres unmarked) | 0.1250
CCC(=CCC1CC=C(C)C1(C)C)CO (centres unmarked) | 0.0625
CC1=CCC(CCC(C)C(C)O)C1(C)C (centres unmarked) | 0.1250

query: Looking for the measured Minimal inhibitory concentration (MIC) Ax 26 of Oc1cc(Cl)ccc1Oc1ccc(Cl)cc1Cl , can you help?
result: 0.0015

query: Record: CC(C)=CCCC(C)=CCCC(C)=CCO
result: 0.0078
